Where do the numbers come from? From patent US9247759B2.

- study.system: hT2R8 (Homo sapiens (Human))
- Sequence (Q9NYW2 whole entry): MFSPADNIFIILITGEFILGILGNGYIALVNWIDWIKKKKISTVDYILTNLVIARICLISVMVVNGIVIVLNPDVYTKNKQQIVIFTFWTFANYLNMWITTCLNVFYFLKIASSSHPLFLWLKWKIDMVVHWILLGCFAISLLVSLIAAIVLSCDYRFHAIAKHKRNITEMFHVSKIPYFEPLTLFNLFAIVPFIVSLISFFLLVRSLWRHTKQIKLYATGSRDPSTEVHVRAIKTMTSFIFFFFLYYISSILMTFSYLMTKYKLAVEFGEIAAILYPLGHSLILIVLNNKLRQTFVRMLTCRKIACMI
- test.details: hT2R8 antagonist high-throughput FLIPR assay, stable cell line with G16g44, agonist andrographolide
- Assay type: cell-based
- condition.info: table after Example 10-97; read-out: hT2R8 IC50
Rule: measured IC50 below 200 nM gets True; anything equal to or greater than 200 nM gets False.

// query API: query returns whether the molecule falls strictly under 200 nM in IC50. Query: Cc1noc(C)c1Cn1cc(N2C(=O)CN(Cc3ccccc3N)C2=O)cn1 [Example 10-34]
// result True

// query API: query returns whether the molecule falls strictly under 200 nM in IC50. Query: Cc1noc(C)c1Cn1cc(N2C(=O)CN(CCOc3ccccc3)C2=O)cn1 [Example 10-5]
// result True

// query API: query returns whether the molecule falls strictly under 200 nM in IC50. Query: Cc1noc(C)c1Cn1cc(N2C(=O)N[C@H](Cc3ccccc3)C2=O)cn1 [Example 10-4]
// result True

// query API: query returns whether the molecule falls strictly under 200 nM in IC50. Query: Cc1noc(C)c1Cn1cc(N2C(=O)CN(Cc3ccc(C#N)cc3)C2=O)cn1 [Example 10-32]
// result True

// query API: query returns whether the molecule falls strictly under 200 nM in IC50. Query: Cc1noc(C)c1Cn1cc(N2C(=O)NC(CC(=O)Nc3ccccc3)C2=O)cn1 (centres unmarked) [Example 10-48]
// result False

// query API: query returns whether the molecule falls strictly under 200 nM in IC50. Query: Cc1noc(C)c1Cn1cc(N2C(=O)CN(Cc3cc(C)n(C)n3)C2=O)cn1 [Example 10-28]
// result False

// query API: query returns whether the molecule falls strictly under 200 nM in IC50. Query: Cc1ccc(CN2CC(=O)N(c3cnn(Cc4c(C)noc4C)c3)C2=O)cc1 [Example 10-30]
// result True

// query API: query returns whether the molecule falls strictly under 200 nM in IC50. Query: Cc1noc(C)c1Cn1cc(N2C(=O)CN(Cc3ccc(O)cc3)C2=O)cn1 [Example 10-12]
// result True

// query API: query returns whether the molecule falls strictly under 200 nM in IC50. Query: Cc1noc(C)c1Cn1cc(N2C(=O)CN(CC3CCCO3)C2=O)cn1 (centres unmarked) [Example 10-73]
// result False

// query API: query returns whether the molecule falls strictly under 200 nM in IC50. Query: Cc1noc(C)c1Cn1cc(N2C(=O)NC(Cc3ccc(O)c(O)c3)C2=O)cn1 (centres unmarked) [Example 10-60]
// result False

// query API: query returns whether the molecule falls strictly under 200 nM in IC50. Query: Cc1noc(C)c1Cn1cc(N2C(=O)CN(Cc3cccc(F)c3)C2=O)cn1 [Example 10-27]
// result True
